The reported measurements were obtained from PubChem BioAssay AID2060598.

target: P. falciparum 3D7A growth, LDH activity; test: parasite LDH-based blood-stage antimalarial activity – strain 3D7A, LDH readout, dose response (AID 2060598); conditions: standard media with serum
TEST READOUT: IC50 (µM)

Record excerpt, results attached:
CCN(CC)c1ccc(C(=O)COc2ccc3c(c2)CCNCC3)cc1 :: 1
N#Cc1cccc(NC(=O)CNc2ccccc2C(=O)NC2CC2)c1 :: 0.398
O=C1CSc2ccc(C(=O)Nc3ccc(-c4nnc5n4CCCCC5)cc3)cc2N1 :: 5.01
CCCOc1cncc(S(=O)(=O)c2ccc3c(c2)CCN(C2CCC2)CC3)c1 :: 3.98
O=C(Nc1cccnc1)C1CCN(c2ccc(-c3ccco3)nn2)CC1 :: 7.94

[I] CC(C)Oc1ccc(-c2nnc(Oc3cccc4c3CCN(CCC(N)=O)CC4)s2)cc1C#N
[II] O=C(/C=C/c1n[nH]c2ccccc12)Nc1ccc(C(=O)NCCN2CCOCC2)cc1
[III] Cc1nn(C2CCS(=O)(=O)C2)c(C)c1CN(C)C(=O)CN1C(=O)NC2(CCCCC2C)C1=O (stereo not given)
[IV] COc1ccc2oc(C(=O)NC3CCC(Oc4ncccn4)CC3)cc2c1 (stereo not given)
[V] Cc1cc(Cl)ccc1OCC(=O)N1CCc2c(cnc(C)c2CNC(=O)c2ccc(=O)[nH]n2)C1
Query string: Rank entries according to their IC50, from the largest number down. Answer by listing the labels in the requested order.
Result string: I, II, IV, III, V
(I: 10 µM, II: 3.16 µM, IV: 1.26 µM, III: 0.631 µM, V: 0.316 µM)
